# Test system: SN12C
# Protocol Details: NCI tumour cell line growth inhibition, 48 h
Activity calls are given as the source filed them. No stated cut-off is given here; in the data, active = GI50 up to about 1.1 µM and inactive = higher.
Attribute: GI50
Assay Metric: GI50

INSERT INTO results (compound, experimental_target, experimental_value) VALUES
  ('CC(=O)N/N=C1/CC[C@@]2(C)C(=CC[C@H]3C4CCC(C(C)CCCC(C)C)[C@@]4(C)CCC32)C1(C)C (stereo partly specified)', 'SN12C', '51.4 µM (inactive)'),
  ('CCCNC(=S)N/C=C1/C(=O)Oc2ccccc2C1=O', 'SN12C', '> 100 µM (inactive)'),
  ('CCOC(=O)c1sc2nc(SC)nc3c2c1NCN3c1ccc2c(c1)OCCCO2', 'SN12C', '49.7 µM (inactive)'),
  ('CC(=O)OCC1OC(OC2CC3C(C)(C)C(OC(C)=O)CC[C@]3(C)C3CCC45CC4(CC[C@H]5C(C)CC(O)C4OC4(C)C)[C@]23C)C(O)C(O)C1O (stereo partly specified)', 'SN12C', '2.29 µM (inactive)'),
  ('COc1cc(/C=C2\C(=O)N(c3cccc(Cl)c3)C(c3ccccc3)S2(=O)=O)cc(OC)c1OC (stereo unspecified)', 'SN12C', '72.8 µM (inactive)'),
  ('O=c1[nH]c(=O)n(C2CC(O)C(CO)O2)cc1OCC1CCCCC1 (stereo unspecified)', 'SN12C', '> 100 µM (inactive)'),
  ('CCOC(=O)Cc1nc2c(N)ncnc2n1C1OC(COC(C)=O)C(OC(C)=O)C1OC(C)=O (stereo unspecified)', 'SN12C', '> 100 µM (inactive)'),
  ('Cc1ccc(Nc2nc3ccccc3nc2NS(=O)(=O)c2ccc(N)cc2)cc1', 'SN12C', '48.3 µM (inactive)'),
  ('BC(=O)NC(CC(C)C)C(=O)NCC(=O)NC1c2ccsc2C(=O)C1O.CN(C)C (stereo unspecified)', 'SN12C', '> 100 µM (inactive)'),
  ('COc1ccccc1-c1cc(O)c2cccnc2n1', 'SN12C', '50.2 µM (inactive)'),
  ('CC(C)(C)[Si](C)(C)OCC1OC(n2ccc(N)nc2=O)C(O[Si](C)(C)C(C)(C)C)C1O[Si](C)(C)C(C)(C)C (stereo unspecified)', 'SN12C', '3.65 µM (inactive)');
